Reference source for all entries: ChEMBL document CHEMBL2057168

assay: Tmax in human at 175 mg, po QID administered on day 1 followed by 2-days wash out period after which dosing continued up to day 11 measured on day 4; assay type: ADME, organism-based; conditions: in vivo
QUANTITY NAME: Tmax (h)

STRUCTURE SMILES STRING	QUANTITY NAME	REPORTED
O=C(O)c1n[nH]c2c1C[C@H]1C[C@@H]21	Tmax	1

* * *

assay: Tmax in human at 150 mg, po BID administered on day 1 followed by 2-day wash out period after which dosing continued up to day 11 measured on day 1; assay type: ADME, organism-based; details: in vivo

STRUCTURE SMILES STRING	Tmax (h)
O=C(O)c1n[nH]c2c1C[C@H]1C[C@@H]21	1.25

* * *

assay: Cmin in human at 100 mg, po BID administered on day 1 followed by 2-day wash out period after which dosing continued up to day 11 measured on day 11 at 12 hrs; format: ADME, organism-based; conditions: in vivo, read-out: Cmin

STRUCTURE SMILES STRING	MEASURE UNIT	concentration at 12 h
O=C(O)c1n[nH]c2c1C[C@H]1C[C@@H]21	nM	0.104

* * *

experiment: Cmax in human at 150 mg, po TID administered on day 1 followed by 2-days wash out period after which dosing continued up to day 11 measured on day 4; assay type: ADME, organism-based; parameters: dose 150 mg, route oral; conditions: in vivo
QUANTITY NAME: Cmax

STRUCTURE SMILES STRING	REPORTED
O=C(O)c1n[nH]c2c1C[C@H]1C[C@@H]21	52.6 nM

* * *

Property: bioavailability; scope: individual compounds
assay: Oral bioavailability in mouse; format: ADME, organism-based; conditions: in vivo
QUANTITY NAME: bioavailability

STRUCTURE SMILES STRING	QUANTITY NAME	REPORTED
C[C@@H]1[C@@H]2Cc3c(C(=O)O)n[nH]c3[C@H]12	bioavailability	51%
O=C(O)c1n[nH]c2c1C[C@H]1C[C@@H]21	bioavailability	40%

* * *

assay: Tmax in human at 150 mg, po TID administered on day 1 followed by 2-days wash out period after which dosing continued up to day 11 measured on day 11; type: ADME, organism-based; conditions: in vivo
QUANTITY NAME: Tmax (h)

STRUCTURE SMILES STRING	QUANTITY NAME	REPORTED
O=C(O)c1n[nH]c2c1C[C@H]1C[C@@H]21	Tmax	1

* * *

assay: Cmax in human at 50 mg, po BID administered on day 1 followed by 2-day wash out period after which dosing continued up to day 11 measured on day 1; assay type: ADME, organism-based; parameters: dose 50 mg, route oral; conditions: in vivo

STRUCTURE SMILES STRING	Cmax
O=C(O)c1n[nH]c2c1C[C@H]1C[C@@H]21	12.3 nM

* * *

test: Cmin in human at 150 mg, po BID administered on day 1 followed by 2-day wash out period after which dosing continued up to day 11 measured on day 4 at 12 hrs; assay type: ADME, organism-based; details: in vivo, read-out: Cmin
QUANTITY NAME: concentration at 12 h (nM)

STRUCTURE SMILES STRING	QUANTITY NAME	REPORTED
O=C(O)c1n[nH]c2c1C[C@H]1C[C@@H]21	concentration at 12 h	0.241
